# experimentDescription: Solubility of linerixibat drug substance over pH 1.2-6.8 at 37±1° C. (Experiment 8a)
# Type: physicochemical
# runConditions: Britton Robinson buffer, 37 °C, pH 4, aqueous buffer, thermodynamic from solid, nominal pH 4.0, BR buffer, 4-hr timepoint
testReadout: solubility at 4 h (µg/mL)

1) CCCC[C@]1(CC)CS(=O)(=O)c2cc(CNC(CC(=O)O)CC(=O)O)c(OC)cc2[C@@H](c2ccccc2)N1 [Form I]: 125

---

# experimentDescription: Solubility of drug substance samples in biorelevant media and sodium acetate buffer (Experiment 8b)
# Type: physicochemical
# runConditions: Simulated Gastric Fluid (SGF), pH 4, simulated gastric fluid, thermodynamic from solid, SGF pH 4.0, 1 Hour
# Text: Solubility data was obtained for drug substance samples of linerixibat Form I, linerixibat Form III, and additionally for a sample of Form I compressed to 100 MPa which therefore contained an amount of Form III, in order to replicate typical forces encountered during tablet manufacture. […]
testReadout: solubility at 1 h (µg/mL)

1. CCCC[C@]1(CC)CS(=O)(=O)c2cc(CNC(CC(=O)O)CC(=O)O)c(OC)cc2[C@@H](c2ccccc2)N1 [Form I]: 150

---

# experimentDescription: Solubility of drug substance samples in biorelevant media and sodium acetate buffer (Experiment 8b)
# Assay type: physicochemical
# runConditions: Fasted State Simulated Intestinal Fluid (FaSSIF), pH 6.5, fassif, thermodynamic from solid, FaSSIF pH 6.5, 4 Hours
testReadout: solubility at 4 h (µg/mL)

1) CCCC[C@]1(CC)CS(=O)(=O)c2cc(CNC(CC(=O)O)CC(=O)O)c(OC)cc2[C@@H](c2ccccc2)N1 [Form I]: 5110

---

# experimentDescription: Solubility of linerixibat drug substance over pH 1.2-6.8 at 37±1° C. (Experiment 8a)
# Format: physicochemical
# runConditions: acetate buffer, 37 °C, pH 4.5, aqueous buffer, thermodynamic from solid, nominal pH 4.5, Acetate buffer, 1-hr timepoint
testReadout: solubility at 1 h (µg/mL)

1. CCCC[C@]1(CC)CS(=O)(=O)c2cc(CNC(CC(=O)O)CC(=O)O)c(OC)cc2[C@@H](c2ccccc2)N1 [Form I]: 190

---

# experimentDescription: Solubility of drug substance samples in biorelevant media and sodium acetate buffer (Experiment 8b)
# Assay type: physicochemical
# runConditions: Simulated Gastric Fluid (SGF), pH 2, simulated gastric fluid, thermodynamic from solid, SGF pH 2.0, 1 Hour
testReadout: solubility at 1 h (µg/mL)

1) CCCC[C@]1(CC)CS(=O)(=O)c2cc(CNC(CC(=O)O)CC(=O)O)c(OC)cc2[C@@H](c2ccccc2)N1 [Form I]: 1490

---

# experimentDescription: Solubility of linerixibat drug substance over pH 1.2-6.8 at 37±1° C. (Experiment 8a)
# Type: physicochemical
# runConditions: Britton Robinson buffer, 37 °C, pH 3.7, aqueous buffer, thermodynamic from solid, nominal pH 3.7, BR buffer, 24-hr timepoint
testReadout: solubility at 24 h (µg/mL)

1) CCCC[C@]1(CC)CS(=O)(=O)c2cc(CNC(CC(=O)O)CC(=O)O)c(OC)cc2[C@@H](c2ccccc2)N1 [Form III]: 129

---

# experimentDescription: Solubility of drug substance samples in biorelevant media and sodium acetate buffer (Experiment 8b)
# Type: physicochemical
# runConditions: Simulated Gastric Fluid (SGF), pH 4, simulated gastric fluid, thermodynamic from solid, SGF pH 4.0, 24 Hours
testReadout: solubility at 24 h (µg/mL)

1) CCCC[C@]1(CC)CS(=O)(=O)c2cc(CNC(CC(=O)O)CC(=O)O)c(OC)cc2[C@@H](c2ccccc2)N1 [Form I]: 160
